Heads up, these molecules all have IC50 values measured for UniProtKB P04629.
Where a name gives a salt, the structure may show the parent alone.

Molecule | IC50
COC[C@@H](N1C[C@@H](NC(=O)Nc2c(C)c(OC[C@H](C)O)nn2-c2ccccc2)[C@H](c2ccc(F)c(F)c2)C1)C(F)(F)F | 100 to 1000 nM
COCCN1C[C@@H](NC(=O)Nc2cc(C(F)(F)F)nn2-c2ccccc2)[C@H](c2ccccc2)C1 | < 100 nM
COCCN1C[C@@H](NC(=O)Nc2c(Cl)c(-c3ccccc3)nn2-c2ccccc2)[C@H](c2cc(F)cc(F)c2)C1 | < 100 nM
COCCN1C[C@@H](NC(=O)Nc2c(C)c(OC[C@H](C)O[Si](C)(C)C(C)(C)C)nn2-c2ccccc2)[C@H](c2cc(F)c(F)c(F)c2)C1 | 100 to 1000 nM
CCn1nc(-c2ccccc2)c(NC(=O)N[C@@H]2CN(CCOC)C[C@H]2c2ccc(F)c(F)c2)c1C | < 100 nM
Cc1c(OC[C@H]2COC(C)(C)O2)nn(-c2ccccc2)c1NC(=O)N[C@H]1CN(CC(F)(F)F)C[C@@H]1c1ccccc1 | < 100 nM
CCOc1nn(-c2ccccc2)c(NC(=O)N[C@@H]2CN(CCOC)C[C@H]2c2cccc(F)c2)c1C | < 100 nM
COCCN1C[C@@H](NC(=O)Nc2c(C)c([C@H]3CCCN3C)nn2-c2ccccc2)[C@H](c2ccc(F)c(F)c2)C1 [Example 597, dihydrochloride] | < 100 nM
COCCN1C[C@@H](NC(=O)Nc2c(C)c(-c3nn(C)c(=O)o3)nn2-c2ccccc2)[C@H](c2ccc(F)c(F)c2)C1 | < 100 nM
COCCN1C[C@@H](NC(=O)Nc2c3c(nn2-c2ccccc2)CCC3)[C@H](c2ccncc2)C1 (relative stereo) | < 100 nM
COCCN1C[C@@H](NC(=O)Nc2c(Br)c(COC3CCN(C(C)=O)CC3)nn2-c2ccccc2)[C@H](c2ccc(F)c(F)c2)C1 | < 100 nM
COCCN1C[C@@H](NC(=O)Nc2c(Cl)c(OC[C@@H](C)O)nn2-c2ccccc2)[C@H](c2ccc(F)c(F)c2)C1 | < 100 nM
COCCN1C[C@@H](NC(=O)Nc2c(C)c(-c3cnn(CC(F)(F)F)c3)nn2-c2ccccc2)[C@H](c2ccc(F)c(F)c2)C1 | < 100 nM

----------
As a worked illustration, we turn to pIC50 data collected for TrkA (Homo sapiens (Human), UniProt P04629).
pIC50: −log10 of the molar value.
Endpoint name: pIC50

Compound | Value
COCCN1C[C@@H](NC(=O)Nc2cc(C(C)(C)C)nn2-c2ccccc2F)[C@H](c2ccccc2)C1 (relative stereo) | 5.00 to 6.00
COCCN1C[C@@H](NC(=O)Nc2cn(-c3ccccc3)nc2C(F)(F)F)[C@H](c2ccc(F)c(F)c2)C1 | 6.00 to 7.00
COCCN1C[C@@H](NC(=O)Nc2c(C)c(-c3ccc(=O)n(C)c3)nn2-c2ccccc2)[C@H](c2cc(F)c(F)c(F)c2)C1 | > 7.00

----------
As a worked illustration, we turn to IC50 data collected for TrkA (Homo sapiens (Human)).
Where a name gives a salt, the structure may show the parent alone.

Compound | Study system | IC50
CCOc1nn(-c2ccccc2)c(NC(=O)N[C@@H]2CN(c3ccccc3F)C[C@H]2c2ccccc2)c1C | TrkA (Homo sapiens (Human)) | 100 to 1000 nM
COCCN1C[C@@H](NC(=O)Nc2c(C)c(COC)nn2-c2ccccc2)[C@H](c2cc(F)cc(F)c2)C1 | TrkA (Homo sapiens (Human)) | < 100 nM
COCCN1C[C@@H](NC(=O)Nc2cc(C)nn2-c2ccccc2)[C@H](c2cc(F)cc(F)c2)C1 | TrkA (Homo sapiens (Human)) | < 100 nM
COCCN1C[C@@H](NC(=O)Nc2c(C)c(C(=O)O)nn2-c2ccccc2)[C@H](c2ccc(F)c(F)c2)C1 | TrkA (Homo sapiens (Human)) | 100 to 1000 nM
COCCN1C[C@@H](NC(=O)Nc2c(Br)c([C@H]3CCCN3C(=O)OC(C)(C)C)nn2-c2ccccc2)[C@H](c2ccc(F)c(F)c2)C1 | TrkA (Homo sapiens (Human)) | 100 to 1000 nM
COCCN1C[C@@H](NC(=O)Nc2cc(COC)nn2-c2ccccc2)[C@H](c2ccccc2)C1 | TrkA (Homo sapiens (Human)) | 100 to 1000 nM
COCCCc1nn(-c2ccccc2)c(NC(=O)N[C@@H]2CN(CCOC)C[C@H]2c2ccc(F)c(F)c2)c1C | TrkA (Homo sapiens (Human)) | < 100 nM
COCCN1C[C@@H](NC(=O)Nc2c(Cl)c([C@@H]3CCCN3)nn2-c2ccccc2)[C@H](c2ccc(F)c(F)c2)C1 [Example 587, dihydrochloride] | TrkA (Homo sapiens (Human)) | < 100 nM
O=C(Nc1c2c(nn1-c1ccccc1)CCC2)N[C@@H]1CN(CCC(F)(F)C(F)(F)F)C[C@H]1c1ccccc1 | TrkA (Homo sapiens (Human)) | 100 to 1000 nM
COCCN1C[C@@H](NC(=O)Nc2c(C)c(C(N)=O)nn2-c2ccccc2)[C@H](c2ccc(F)c(F)c2)C1 | TrkA (Homo sapiens (Human)) | < 100 nM
COCCN1C[C@@H](NC(=O)Nc2c(C)c([C@H]3C[C@@H](O)C3)nn2-c2ccccc2)[C@H](c2ccc(F)cc2)C1 | TrkA (Homo sapiens (Human)) | < 100 nM
COCCN1C[C@@H](NC(=O)Nc2c(C)c(C(F)(F)CO)nn2-c2ccccc2)[C@H](c2ccc(F)c(F)c2)C1 | TrkA (Homo sapiens (Human)) | < 100 nM
C[C@H]1[C@@H](c2ccccc2)C(NC(=O)Nc2c3c(nn2-c2ccccc2)CCC3)CN1CC(F)(F)F (some centres unmarked) | TrkA (Homo sapiens (Human)) | 100 to 1000 nM
COCCN1C[C@@H](NC(=O)Nc2c(C)c(-c3cnn(C)c3)nn2-c2ccc(F)c(Cl)c2)[C@H](c2ccc(F)cc2)C1 | TrkA (Homo sapiens (Human)) | < 100 nM

Cited source: patent US10323022B2
